- Tested on: SULT1C1
- assayName: SULT1C1 enzyme activity assay: sulfate conjugation of 4-nitrophenol with 35S-PAPS, COS-1 cytosol of recombinant allozymes
- Format: biochemical, human
- assayContext: statement in words
reportedProperty: activity relative to the reference (wild type) SULT1C1

INSERT INTO results (molecule, reported) VALUES
  ('Asp60Ala: SULT1C1 polypeptide having an alanine at amino acid residue 60 in place of aspartic acid (protein) MALTSDLGKQIKLKEVEGTLLQPATVDNWSQIQSFEAKPDDLLICTYPKAGTTWIQEIVAMIEQNGDVEKCQRAIIQHRHPFIEWARPPQPSGVEKAKAMPSPRILKTHLSTQLLPPSFWENNCKFLYVARNAKDCMVSYYHFQRMNHMLPDPGTWEEYFETFINGKVVWGSWFDHVKGWWEMKDRHQILFLFYEDIKRDPKHEIRKVMQFMGKKVDETVLDKIVQETSFEKMKENPMTNRSTVSKSILDQSISSFMRKGTVGDWKNHFTVAQNERFDEIYRRKMEGTSINFCMEL', 'reduced activity'),
  ('Ser111Phe: SULT1C1 polypeptide having a phenylalanine at amino acid 111 in place of a serine (protein) MALTSDLGKQIKLKEVEGTLLQPATVDNWSQIQSFEAKPDDLLICTYPKAGTTWIQEIVDMIEQNGDVEKCQRAIIQHRHPFIEWARPPQPSGVEKAKAMPSPRILKTHLFTQLLPPSFWENNCKFLYVARNAKDCMVSYYHFQRMNHMLPDPGTWEEYFETFINGKVVWGSWFDHVKGWWEMKDRHQILFLFYEDIKRDPKHEIRKVMQFMGKKVDETVLDKIVQETSFEKMKENPMTNRSTVSKSILDQSISSFMRKGTVGDWKNHFTVAQNERFDEIYRRKMEGTSINFCMEL', 'reduced activity');

Data provenance is patent US7541169B2.
